Assay: Water-solubility
Format: physicochemical
METRIC: solubility

Which solubility reading was recorded for the compound CCS(CC)=NC1=C(C)C(=O)C2=C(C1=O)[C@@H](COC(N)=O)[C@@]1(OC)[C@H]3N[C@H]3CN21 ? > 40 mg/mL
